Reference source for all entries: patent US11168095B2

Tgt: ASK1 T838 auto phosphorylation in HEK-293T cells (Homo sapiens (Human))
Measurement Notes: ASK1 (AUTO PHOS T838) assay, MSD format
Format: cell-based
Condition Context: read-out: IC50
Metric: IC50

Field: IC50 (ASK1 T838 auto phosphorylation in HEK-293T cells (Homo sapiens (Human))). Entry: `O=C1Nc2cccc(n2)-c2nncn2C/C=C\COc2ccc(N3CCOCC3)cc21`
< 1000 nM

====

Tgt: ASK1 T838 auto phosphorylation in HEK-293T cells (Homo sapiens (Human), UniProt Q99683)
Sequence (Q99683 whole entry): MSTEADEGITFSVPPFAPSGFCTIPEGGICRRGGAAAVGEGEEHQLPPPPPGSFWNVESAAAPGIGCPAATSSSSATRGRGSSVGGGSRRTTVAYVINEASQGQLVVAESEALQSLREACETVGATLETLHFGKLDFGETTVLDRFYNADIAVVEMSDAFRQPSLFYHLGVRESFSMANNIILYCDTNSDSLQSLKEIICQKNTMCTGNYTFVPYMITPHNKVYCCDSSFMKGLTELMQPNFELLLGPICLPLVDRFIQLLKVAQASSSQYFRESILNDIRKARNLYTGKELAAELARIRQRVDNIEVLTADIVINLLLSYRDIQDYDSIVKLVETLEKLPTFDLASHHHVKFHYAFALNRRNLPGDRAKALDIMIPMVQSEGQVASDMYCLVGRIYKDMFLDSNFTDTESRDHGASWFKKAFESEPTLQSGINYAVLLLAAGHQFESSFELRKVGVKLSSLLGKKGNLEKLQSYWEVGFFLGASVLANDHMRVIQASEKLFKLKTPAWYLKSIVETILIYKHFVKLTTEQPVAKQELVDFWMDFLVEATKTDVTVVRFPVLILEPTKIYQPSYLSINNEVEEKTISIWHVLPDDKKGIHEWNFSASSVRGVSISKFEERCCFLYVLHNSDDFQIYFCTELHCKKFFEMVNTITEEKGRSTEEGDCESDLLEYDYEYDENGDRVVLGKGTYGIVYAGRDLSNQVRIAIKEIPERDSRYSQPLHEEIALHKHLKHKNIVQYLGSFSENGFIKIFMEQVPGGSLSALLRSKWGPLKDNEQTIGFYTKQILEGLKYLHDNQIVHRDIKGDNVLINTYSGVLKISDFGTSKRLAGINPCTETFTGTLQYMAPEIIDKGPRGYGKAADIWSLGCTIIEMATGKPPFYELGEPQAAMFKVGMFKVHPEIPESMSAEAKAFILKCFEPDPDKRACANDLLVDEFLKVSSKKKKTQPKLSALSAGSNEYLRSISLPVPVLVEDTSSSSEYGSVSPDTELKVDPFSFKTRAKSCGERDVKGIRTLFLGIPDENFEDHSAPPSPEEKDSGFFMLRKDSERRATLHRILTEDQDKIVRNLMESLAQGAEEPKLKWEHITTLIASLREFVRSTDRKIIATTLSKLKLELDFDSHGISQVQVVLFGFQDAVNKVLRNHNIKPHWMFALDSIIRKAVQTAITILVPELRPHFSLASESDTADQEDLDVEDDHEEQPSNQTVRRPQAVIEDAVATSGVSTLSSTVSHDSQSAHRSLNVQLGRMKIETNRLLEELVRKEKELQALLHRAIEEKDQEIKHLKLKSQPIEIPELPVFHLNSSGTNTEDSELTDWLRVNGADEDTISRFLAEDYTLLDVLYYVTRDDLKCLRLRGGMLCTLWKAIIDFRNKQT
Measurement Notes: ASK1 (AUTO PHOS T838) assay, MSD format
Type: cell-based
Condition Context: HEK 293T cells transfected with ASK1-V5 full length plasmid, compounds 1 hr at 37° C.; read-out: IC50
Metric: IC50

- Compound: "CC(C)n1cc(-c2ccc3c(c2)C(=O)Nc2cccc(n2)-c2nncn2CCCCO3)cn1 [Example 36]"
  Tgt: "ASK1 T838 auto phosphorylation in HEK-293T cells (Homo sapiens (Human), UniProt Q99683)"
  IC50: "< 1000 nM"
- Compound: "Cc1cc(-c2cc3c(cc2F)OCCCCn2cnnc2-c2cccc(n2)NC3=O)ccn1 [Example 54]"
  Tgt: "ASK1 T838 auto phosphorylation in HEK-293T cells (Homo sapiens (Human), UniProt Q99683)"
  IC50: "< 1000 nM"
- Compound: "Cc1cc(C)n(-c2ccc3c(c2)C(=O)Nc2cccc(n2)-c2nncn2CCCCO3)n1 [Example 46]"
  Tgt: "ASK1 T838 auto phosphorylation in HEK-293T cells (Homo sapiens (Human), UniProt Q99683)"
  IC50: "< 1000 nM"
- Compound: "CN1C(=O)c2cc(Br)ccc2OCCCCn2cnnc2-c2cccc1n2 [Example 152]"
  Tgt: "ASK1 T838 auto phosphorylation in HEK-293T cells (Homo sapiens (Human), UniProt Q99683)"
  IC50: "> 10000 nM"
- Compound: "O=C1Nc2cccc(n2)-c2nncn2C/C=C/CCOc2ccccc21 [Example 175]"
  Tgt: "ASK1 T838 auto phosphorylation in HEK-293T cells (Homo sapiens (Human), UniProt Q99683)"
  IC50: "< 1000 nM"

Give IC50 for each of the items listed below.
1. O=C1Nc2cccc(n2)-c2nncn2CCCCOc2cc(F)c(-c3cncc(C(F)(F)F)c3)cc21 [Example 58]
2. Cc1cn(-c2cc3c(cc2F)OCCCCn2cnnc2-c2cccc(n2)NC3=O)cn1 [Example 66]
3. C[C@@H]1CCCOc2cc(F)c(Br)cc2C(=O)Nc2cccc(n2)-c2nncn21 [Example 102]

1: < 1000 nM; 2: < 1000 nM; 3: > 10000 nM
